# TARGET_UNDER_TEST: human 1,5-anhydroglucitol/fructose/mannose transporter (human SMINT) (Homo sapiens, UniProt Q2M3M2)
# Sequence (Q2M3M2 whole entry): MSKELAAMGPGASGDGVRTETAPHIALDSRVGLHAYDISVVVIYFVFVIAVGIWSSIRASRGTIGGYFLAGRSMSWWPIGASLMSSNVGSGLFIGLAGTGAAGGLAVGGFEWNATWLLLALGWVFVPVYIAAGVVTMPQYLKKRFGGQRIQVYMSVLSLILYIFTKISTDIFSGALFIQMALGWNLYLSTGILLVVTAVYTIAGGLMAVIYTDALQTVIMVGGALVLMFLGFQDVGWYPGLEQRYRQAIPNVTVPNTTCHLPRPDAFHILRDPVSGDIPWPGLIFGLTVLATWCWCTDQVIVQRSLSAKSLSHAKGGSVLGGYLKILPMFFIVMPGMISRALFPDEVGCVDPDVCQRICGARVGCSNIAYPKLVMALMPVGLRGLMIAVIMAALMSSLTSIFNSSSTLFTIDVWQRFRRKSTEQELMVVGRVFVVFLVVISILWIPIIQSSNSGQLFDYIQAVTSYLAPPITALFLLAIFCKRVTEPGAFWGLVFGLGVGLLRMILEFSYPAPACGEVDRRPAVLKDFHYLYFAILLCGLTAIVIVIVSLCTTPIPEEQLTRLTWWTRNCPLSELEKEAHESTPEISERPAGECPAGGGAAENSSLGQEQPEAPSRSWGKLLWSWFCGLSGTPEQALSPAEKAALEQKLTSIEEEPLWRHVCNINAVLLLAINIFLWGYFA
# TEST_PROTOCOL: Confirmatory test for inhibitory activity on human 1,5-anhydroglucitol/fructose/mannose transporter (inhibition assay of methyl-α-D-glucopyranoside uptake activity)
# STUDY_CONDITIONS: COS-7 cells transiently expressing human SMINT; uptake of 1 mM methyl-α-D-glucopyranoside (α-MG), 1 hour, 37° C.; logit plot analysis
Catalogue of IC50 values
Could you give me the number in nM? Just the number is fine.

Below: 3 compounds and their reported IC50.
{"CHEMICAL_STRING": "COc1ccc(Cc2c(O[C@@H]3O[C@H](CO)[C@@H](O)[C@H](O)[C@H]3O)nn(C(C)C)c2-c2ccc(OC)cc2)cc1", "READOUT_UNITS": "nM", "IC50": 92}
{"CHEMICAL_STRING": "COc1ccc(Cc2c(O[C@@H]3O[C@H](CO)[C@@H](O)[C@H](O)[C@H]3O)nn(C(C)C)c2-c2ccc3c(c2)OCCO3)cc1", "READOUT_UNITS": "nM", "IC50": 296}
{"CHEMICAL_STRING": "COc1ccc(Cc2c(O[C@@H]3O[C@H](CO)[C@@H](O)[C@H](O)[C@H]3O)nn(-c3ccccc3F)c2C(C)C)cc1", "READOUT_UNITS": "nM", "IC50": 245}

I am curious: what IC50 value has been reported for "CC(C)c1c(Cc2ccccc2)c(O[C@@H]2O[C@H](CO)[C@@H](O)[C@H](O)[C@H]2O)nn1C(C)C" ?
444
